Data provenance is patent US20250034147A1.

As shown below, each of these molecules has a reported DC50 value.
molecular target: HiBiT-tagged MDM2 (Homo sapiens, UniProt Q00987); construct: expressed in transfected cells; experiment: MDM2 HiBit HEK293T degradation; assay type: cell-based; settings: HEK293T cells stably expressing C-terminally HiBiT-tagged MDM2; 4 h; read-out: MDM2 HiBit HEK293T degradation 4 h: Average external-Abs DC50
Sequence (Q00987 whole entry): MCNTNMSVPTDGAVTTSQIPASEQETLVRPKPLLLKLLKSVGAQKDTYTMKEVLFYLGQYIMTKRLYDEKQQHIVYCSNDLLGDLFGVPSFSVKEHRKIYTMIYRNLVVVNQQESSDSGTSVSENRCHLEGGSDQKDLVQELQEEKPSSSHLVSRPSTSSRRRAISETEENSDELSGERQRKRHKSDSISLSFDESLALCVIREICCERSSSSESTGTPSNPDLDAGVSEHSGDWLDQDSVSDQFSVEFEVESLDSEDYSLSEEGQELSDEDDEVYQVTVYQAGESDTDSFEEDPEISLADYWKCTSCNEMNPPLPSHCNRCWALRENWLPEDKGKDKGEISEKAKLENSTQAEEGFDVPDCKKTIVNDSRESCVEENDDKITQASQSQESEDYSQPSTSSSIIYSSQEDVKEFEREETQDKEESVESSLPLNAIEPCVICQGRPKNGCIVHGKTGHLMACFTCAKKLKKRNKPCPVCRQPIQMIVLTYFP

Cc1ccc2c(c1)NC(=O)[C@]21[C@@H](c2cccc(C)c2F)[C@H](C(=O)N[C@H]2CC[C@H](C(=O)N3CCN(CCCc4ccc5c(c4)n(C)c(=O)n5C4CCC(=O)NC4=O)CC3)CC2)NC12CCCCC2 (some centres unmarked) [I-55] : 10 to 100 nM
CN1[C@@H](C(=O)N[C@H]2CC[C@H](CN3CCC4(CC3)CN(CCc3ccc5c(c3)n(C)c(=O)n5C3CCC(=O)NC3=O)C4)CC2)[C@H](c2ccnc(Cl)c2F)[C@]2(C(=O)Nc3cc(Cl)ccc32)C12CCC(C)(C)CC2 (some centres unmarked) [I-43] : < 10 nM
Cn1c(=O)n(C2CCC(=O)NC2=O)c2ccc(CCCN3CCN(C[C@H]4CC[C@H](NC(=O)[C@@H]5NC6(CCC(C)(C)CC6)[C@@]6(C(=O)Nc7cc(Cl)ccc76)[C@H]5c5ccnc(Cl)c5F)CC4)C(=O)C3)cc21 (some centres unmarked) [I-56] : < 10 nM
Cn1c(=O)n(C2CCC(=O)NC2=O)c2ccc(CN3CCC(OC4CN(C(=O)[C@H]5CC[C@H](NC(=O)[C@@H]6NC7(CCCCC7)[C@@]7(C(=O)Nc8cc(Cl)ccc87)[C@H]6c6cccc(Cl)c6F)CC5)C4)CC3)cc21 (some centres unmarked) [I-23] : < 10 nM

# input for lookup
Could you tell me which DC50 is on file for O=C(N[C@H]1CC[C@H](CN2CCC(CCCCCC3CCN(C[C@H]4CC[C@H](NC(=O)[C@@H]5NC6(CCCCC6)[C@@]6(C(=O)Nc7cc(Cl)ccc76)[C@H]5c5cccc(Cl)c5F)CC4)CC3)CC2)CC1)[C@@H]1NC2(CCCCC2)[C@@]2(C(=O)Nc3cc(Cl)ccc32)[C@H]1c1cccc(Cl)c1F [I-87] ?
> 1000 nM

---

biological target: HiBiT-tagged MDM2 (Homo sapiens, UniProt Q00987); construct: expressed in transfected cells; assay: MDM2 HiBit HEK293T degradation; type: cell-based; settings: HEK293T cells stably expressing C-terminally HiBiT-tagged MDM2; 4 h; read-out: MDM2 HiBit HEK293T degradation 4 h: Average external-Abs DC50
As shown below, each of these molecules has a reported DC50 value.

Cn1c(=O)n(C2CCC(=O)NC2=O)c2ccc(N3CCC(N4CCC(NC(=O)[C@@H]5NC6(CCCCC6)[C@@]6(C(=O)Nc7cc(Cl)ccc76)[C@H]5c5cccc(Cl)c5F)CC4)CC3)cc21 (stereo partly drawn) : < 0.01 µM

Could you tell me which DC50 is on file for Cn1c(=O)n(C2CCC(=O)NC2=O)c2ccc(CCCN3CCN(C[C@H]4CC[C@H](NC(=O)[C@@H]5NC6(CCCCC6)[C@@]6(C(=O)Nc7cc(Cl)ccc76)[C@H]5c5cccc(Cl)c5F)CC4)C(=O)C3)cc21 (stereo partly drawn) ?
< 0.01 µM

And the next one, COc1cc2c(cc1OC(C)C)[C@H](c1ccc(Cl)cc1)N(c1ccc(N(C)C[C@H]3CC[C@H](N4CCN(Cc5ccc6c(c5)n(C)c(=O)n6C5CCC(=O)NC5=O)CC4)CC3)cc1)C(=O)C2 (stereo partly drawn) ?
< 0.01 µM

And the next one, Cn1c(=O)n(C2CCC(=O)NC2=O)c2ccc(C#CCC3(C(=O)O)CCN(C[C@H]4CC[C@H](NC(=O)[C@@H]5NC6(CCCCC6)[C@@]6(C(=O)Nc7cc(Cl)ccc76)[C@H]5c5cccc(Cl)c5F)CC4)CC3)cc21 (stereo partly drawn) ?
< 0.01 µM

And the next one, Cn1c(=O)n(C2CCC(=O)NC2=O)c2ccc(C3CCN(Cc4ccc(NC(=O)[C@@H]5NC6(CCCCC6)[C@@]6(C(=O)Nc7cc(Cl)ccc76)[C@H]5c5cccc(Cl)c5F)cc4C(=O)O)CC3)cc21 (stereo partly drawn) ?
0.01 to 0.1 µM

And the next one, Cn1c(=O)n(C2CCC(=O)NC2=O)c2ccc(C3CN(Cc4ccc(NC(=O)[C@@H]5NC6(CCCCC6)[C@@]6(C(=O)Nc7cc(Cl)ccc76)[C@H]5c5cccc(Cl)c5F)cc4)C3)cc21 (stereo partly drawn) ?
< 0.01 µM
